Source of measurements: patent US9926293B2

- System: Calu-1 (KRAS G12C)
- Experiment Notes: Cell viability assay (384-well, Alamar blue)
- Assay type: cell-based
- Condition Summary: Homo sapiens, Calu-1, 48 h, Table 7, 8-point dilution series
Experimental Endpoint: EC50 (µM)
Reply with just the number (in µM).

NC1(C(=O)NCCCn2cc(-c3ccc(OC(F)(F)F)cc3)c3cc(CN4CCN(Cc5c(Cl)cccc5Cl)CC4)ccc32)CCNCC1 [Compound 31MEW44] ... 3.6

Query for Calu-1 (KRAS G12C): what EC50 does the record show for NC1(C(=O)NCCCn2cc(-c3cccc(F)c3)c3c(CN4CCN(CCOc5ccc(Cl)cc5)CC4)cccc32)CCNCC1 [Compound 34MEW43] ?
9.42
